assay: Retention time of the compound at 0.4 mM by HPLC analysis; assay type: physicochemical; conditions: 400 µM
Peptide text beside a SMILES is read from it.
result_type: Retention_time
Write your answer as a measured quantity: the number, then the unit.

CCC[C@H](NC(=O)[C@H](CCCCN)NC(=O)[C@H](CCC)NC(=O)[C@H](CCCCN)NC(=O)[C@H](CCC)NC(=O)[C@H](CCCCN)NC(=O)[C@@H](N)CCC)C(=O)N[C@@H](CCCCN)C(N)=O (HELM PEPTIDE1{[Nva].K.[Nva].K.[Nva].K.[Nva].K.[am]}$$$$V2.0): 12 min

CC(C)C[C@H](N)C(=O)N[C@@H](CCCCN)C(N)=O (H-Leu-Lys-NH2) yielded Retention_time of 2.1 min

CCCCCCCCCCCCCCCC(=O)N[C@H](C(=O)N[C@@H](CCCCN)C(=O)N[C@H](C(=O)N[C@@H](CCCCN)C(=O)N[C@H](C(=O)N[C@@H](CCCCN)C(=O)N[C@H](C(=O)N[C@@H](CCCCN)C(N)=O)[C@@H](C)CC)[C@@H](C)CC)[C@@H](C)CC)[C@@H](C)CC (HELM PEPTIDE1{[CCCCCCCCCCCCCCCC(=O)[*:2]].I.K.I.K.I.K.I.K.[am]}$$$$V2.0) yielded Retention_time of 23.5 min

CC(C)C[C@H](NC(=O)[C@H](CCCCN)NC(=O)[C@@H](N)CC(C)C)C(N)=O (H-Leu-Lys-Leu-NH2) yielded Retention_time of 12.1 min

----------
test: Retention time of the compound at 0.4 mM by HPLC analysis; assay type: physicochemical; settings: 400 µM
result_type: Retention_time
Write your answer as a measured quantity: the number, then the unit.

H-VKVKVKVK-NH2: 11.1 min
H-IEIEIEIE-NH2: 16.1 min
H-KLKLKLKLK-NH2: 13.6 min
H-LKLKLKL-NH2: 14.5 min
H-EKEKEKEK-NH2: 1.9 min

"H-FKFKFKFK-NH2" yielded Retention_time of 15.2 min

----------
assay: Retention time of the compound at 0.4 mM by HPLC analysis; format: physicochemical; conditions: 400 µM
Peptide text beside a SMILES is read from it.
// Retention_time lookup, one value per entry
Dear colleague, please return just the value in min, with no unit written.

CCCC[C@H](NC(=O)[C@H](CCCCN)NC(=O)[C@H](CCCC)NC(=O)[C@H](CCCCN)NC(=O)[C@H](CCCC)NC(=O)[C@H](CCCCN)NC(=O)[C@@H](N)CCCC)C(=O)N[C@@H](CCCCN)C(N)=O (HELM PEPTIDE1{[Nle].K.[Nle].K.[Nle].K.[Nle].K.[am]}$$$$V2.0): 14

// moving on: another record for Retention_time
CC[C@H](C)[C@H](N)C(=O)N[C@@H](CCN)C(=O)N[C@H](C(=O)N[C@@H](CCN)C(=O)N[C@H](C(=O)N[C@@H](CCN)C(=O)N[C@H](C(=O)N[C@@H](CCN)C(=O)N[C@H](C(N)=O)[C@@H](C)CC)[C@@H](C)CC)[C@@H](C)CC)[C@@H](C)CC (HELM PEPTIDE1{I.[Dab].I.[Dab].I.[Dab].I.[Dab].I.[am]}$$$$V2.0) yielded Retention_time of 13.5

----------
system: Candida albicans; experiment: Antifungal activity against fluconazole-resistant Candida albicans ATCC 64550 after overnight incubation by CLSI broth microdilution method; format: functional
Square brackets hold non-standard residues; d marks the D form. Peptide text beside a SMILES is read from it. Ala(cPr) = N[C@@H](CC1CC1)C(=O)O
result_type: MIC (µM)
Dear colleague, please return just the value in µM, with no unit written.

NCCCC[C@H](NC(=O)[C@H](CC1CC1)NC(=O)[C@H](CCCCN)NC(=O)[C@H](CC1CC1)NC(=O)[C@H](CCCCN)NC(=O)[C@H](CC1CC1)NC(=O)[C@H](CCCCN)NC(=O)[C@@H](N)CC1CC1)C(N)=O (H-[Ala(cPr)]K[Ala(cPr)]K[Ala(cPr)]K[Ala(cPr)]K-NH2) yielded MIC of 6.25

----------
assay: Retention time of the compound at 0.4 mM by HPLC analysis; assay type: physicochemical; settings: 400 µM
result_type: Retention_time
Write your answer as a measured quantity: the number, then the unit.

H-IKIKIKIA-NH2: 13.9 min
H-IKIAIKIK-NH2: 13.8 min

"H-IKIKIKAK-NH2" yielded Retention_time of 12 min

----------
experiment: Cytotoxicity against NHDF assessed as reduction in cell viability after 5 days by CellTiter-Glo assay; assay type: cell-based; conditions: human, NHDF cells
result_type: GI50 at 120 h

Clc1ccc(COC(Cn2ccnc2)c2ccc(Cl)cc2Cl)c(Cl)c1 (stereo unspecified) yielded GI50 at 120 h of 10.3 µM

----------
test system: Candida albicans; test: Antifungal activity against fluconazole-resistant Candida albicans ATCC 64550 after overnight incubation by CLSI broth microdilution method; format: functional
Peptide text beside a SMILES is read from it.
// MIC lookup, one value per entry

CCCCCCCCCCCC(=O)N[C@H](C(=O)N[C@@H](CCCCN)C(=O)N[C@H](C(=O)N[C@@H](CCCCN)C(=O)N[C@H](C(=O)N[C@@H](CCCCN)C(=O)N[C@H](C(=O)N[C@@H](CCCCN)C(N)=O)[C@@H](C)CC)[C@@H](C)CC)[C@@H](C)CC)[C@@H](C)CC (HELM PEPTIDE1{[CCCCCCCCCCCC(=O)[*:2]].I.K.I.K.I.K.I.K.[am]}$$$$V2.0) yielded MIC of > 100 µM

CCCCCCCCCCCCCCCC(=O)N[C@H](C(=O)N[C@@H](CCCCN)C(=O)N[C@H](C(=O)N[C@@H](CCCCN)C(=O)N[C@H](C(=O)N[C@@H](CCCCN)C(=O)N[C@H](C(=O)N[C@@H](CCCCN)C(N)=O)[C@@H](C)CC)[C@@H](C)CC)[C@@H](C)CC)[C@@H](C)CC (HELM PEPTIDE1{[CCCCCCCCCCCCCCCC(=O)[*:2]].I.K.I.K.I.K.I.K.[am]}$$$$V2.0) yielded MIC of > 100 µM

CC(C)C[C@H](NC(=O)[C@H](CCCCN)NC(=O)[C@@H](N)CC(C)C)C(N)=O (H-Leu-Lys-Leu-NH2) yielded MIC of > 100 µM

----------
// Retention_time lookup, one value per entry
assay: Retention time of the compound at 0.4 mM by HPLC analysis; type: physicochemical; conditions: 400 µM
Dear colleague, please return just the value in min, with no unit written.

Answered examples (3):
H-IIIIKKKK-NH2: 12
H-LKLKLK-NH2: 12.8
H-WKWKWKWK-NH2: 15.9

"H-GKGKGKGK-NH2" yielded Retention_time of 1.6

"H-KIKIKIKI-NH2" yielded Retention_time of 14

"H-KLKLKLK-NH2" yielded Retention_time of 12.7

"H-LKLKLKLKL-NH2" yielded Retention_time of 15.1

"H-IKAKIKIK-NH2" yielded Retention_time of 11.8

"H-IKIKAKIK-NH2" yielded Retention_time of 11.8

"H-IKIKIKIK-NH2" yielded Retention_time of 13.4

"H-IAIKIKIK-NH2" yielded Retention_time of 13.7

"H-AKIKIKIK-NH2" yielded Retention_time of 12.4

----------
// Retention_time lookup, one value per entry
assay: Retention time of the compound at 0.4 mM by HPLC analysis; assay type: physicochemical; conditions: 400 µM
Square brackets hold non-standard residues; d marks the D form. Peptide text beside a SMILES is read from it. Lys(Me2) = CN(C)CCCC[C@H](N)C(=O)O; Ala(cPr) = N[C@@H](CC1CC1)C(=O)O; tBuAla = CC(C)(C)C[C@H](N)C(=O)O; Dap = NC[C@H](N)C(=O)O
Dear colleague, please return just the value in min, with no unit written.

Answered examples (5):
NCCCC[C@H](NC(=O)[C@H](CC1CCCCC1)NC(=O)[C@H](CCCCN)NC(=O)[C@H](CC1CCCCC1)NC(=O)[C@H](CCCCN)NC(=O)[C@H](CC1CCCCC1)NC(=O)[C@H](CCCCN)NC(=O)[C@@H](N)CC1CCCCC1)C(N)=O (HELM PEPTIDE1{[Cha].K.[Cha].K.[Cha].K.[Cha].K.[am]}$$$$V2.0): 17.9
CC[C@H](C)[C@H](N)C(=O)N[C@@H](CCCN)C(=O)N[C@H](C(=O)N[C@@H](CCCN)C(=O)N[C@H](C(=O)N[C@@H](CCCN)C(=O)N[C@H](C(=O)N[C@@H](CCCN)C(=O)N[C@H](C(N)=O)[C@@H](C)CC)[C@@H](C)CC)[C@@H](C)CC)[C@@H](C)CC (HELM PEPTIDE1{I.[Orn].I.[Orn].I.[Orn].I.[Orn].I.[am]}$$$$V2.0): 13.2
CC(C)C[C@@H](N)C(=O)N[C@H](CCCCN)C(=O)N[C@H](CC(C)C)C(=O)N[C@H](CCCCN)C(=O)N[C@H](CC(C)C)C(=O)N[C@H](CCCCN)C(=O)N[C@H](CC(C)C)C(=O)N[C@H](CCCCN)C(N)=O: 13.8
CC(C)C[C@H](NC(=O)[C@H](CCCCN)NC(=O)[C@@H](N)CC(C)C)C(=O)N[C@@H](CCCCN)C(N)=O (H-LKLK-NH2): 11
CC[C@H](C)[C@H](N)C(=O)N[C@@H](CN)C(=O)N[C@H](C(=O)N[C@@H](CN)C(=O)N[C@H](C(=O)N[C@@H](CN)C(=O)N[C@H](C(=O)N[C@@H](CN)C(=O)N[C@H](C(N)=O)[C@@H](C)CC)[C@@H](C)CC)[C@@H](C)CC)[C@@H](C)CC (H-I[Dap]I[Dap]I[Dap]I[Dap]I-NH2): 13.7

CC[C@H](NC(=O)[C@H](CCCCN)NC(=O)[C@H](CC)NC(=O)[C@H](CCCCN)NC(=O)[C@H](CC)NC(=O)[C@H](CCCCN)NC(=O)[C@@H](N)CC)C(=O)N[C@@H](CCCCN)C(N)=O (HELM PEPTIDE1{[Abu].K.[Abu].K.[Abu].K.[Abu].K.[am]}$$$$V2.0) yielded Retention_time of 6

NCCCC[C@H](NC(=O)[C@H](CC1CC1)NC(=O)[C@H](CCCCN)NC(=O)[C@H](CC1CC1)NC(=O)[C@H](CCCCN)NC(=O)[C@H](CC1CC1)NC(=O)[C@H](CCCCN)NC(=O)[C@@H](N)CC1CC1)C(N)=O (H-[Ala(cPr)]K[Ala(cPr)]K[Ala(cPr)]K[Ala(cPr)]K-NH2) yielded Retention_time of 12.8

CC(C)C[C@H](NC(=O)[C@@H](N)CCCCN)C(=O)N[C@@H](CCCCN)C(N)=O (H-Lys-Leu-Lys-NH2) yielded Retention_time of 2.4

"CC(C)C[C@H](NC(=O)[C@H](CCCCN)NC(=O)[C@H](CC(C)C)NC(=O)[C@H](CCCCN)NC(=O)[C@H](CC(C)C)NC(=O)[C@H](CCCCN)NC(=O)[C@@H](N)CC(C)C)C(=O)N[C@@H](CCCCN)C(N)=O" yielded Retention_time of 13.8

CC[C@H](C)[C@H](N)C(=O)N[C@@H](CCCCN(C)C)C(=O)N[C@H](C(=O)N[C@@H](CCCCN(C)C)C(=O)N[C@H](C(=O)N[C@@H](CCCCN(C)C)C(=O)N[C@H](C(=O)N[C@@H](CCCCN(C)C)C(N)=O)[C@@H](C)CC)[C@@H](C)CC)[C@@H](C)CC (H-I[Lys(Me2)]I[Lys(Me2)]I[Lys(Me2)]I[Lys(Me2)]-NH2) yielded Retention_time of 14

CC(C)(C)C[C@H](NC(=O)[C@H](CCCCN)NC(=O)[C@H](CC(C)(C)C)NC(=O)[C@H](CCCCN)NC(=O)[C@H](CC(C)(C)C)NC(=O)[C@H](CCCCN)NC(=O)[C@@H](N)CC(C)(C)C)C(=O)N[C@@H](CCCCN)C(N)=O (H-[tBuAla]K[tBuAla]K[tBuAla]K[tBuAla]K-NH2) yielded Retention_time of 15.6

CCCCCCCCCCCC(=O)N[C@H](C(=O)N[C@@H](CCCCN)C(=O)N[C@H](C(=O)N[C@@H](CCCCN)C(=O)N[C@H](C(=O)N[C@@H](CCCCN)C(=O)N[C@H](C(=O)N[C@@H](CCCCN)C(N)=O)[C@@H](C)CC)[C@@H](C)CC)[C@@H](C)CC)[C@@H](C)CC (HELM PEPTIDE1{[CCCCCCCCCCCC(=O)[*:2]].I.K.I.K.I.K.I.K.[am]}$$$$V2.0) yielded Retention_time of 20.8
